- System: HMLE_sh_eGFP viability, CellTiter-Glo luminescence, 72 h
- assay-notes: cytotoxicity in HMLE control line with eGFP shRNA, dose response, counter-screen for HMLE_sh_ECad selective toxicity project, cell-based, HMLE_sh_eGFP, luminescence (AID 463074);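 also: counterscreen control line to flag general toxicity for the HMLE_sh_ECad screen; potency for loss of viability as luminescence drops below DMSO wells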
The source made the active and inactive calls.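 The calls were made as follows: active = AC50 no more than tenfold above the top dose tested, or full inhibition at every dose with a flat fit (cut at about 19 µM in these data); inconclusive = flat curve fit with inhibition between 30% and 70%, or poor fit; inactive = AC50 more than tenfold above the top dose tested.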
Write down one outcome, taken from Yes = active, No = inactive

These recorded examples may help you get a feel for the data.
>>> df
                                   compound  classification
0  Cc1ccc(C)c(NC(=O)/C(C#N)=C/c2cn(CC(=O)NCc3ccco3)c3ccccc23)c1              No
1  COc1ccc(-c2nc3cnccn3c2NC2CCCCC2)cc1-c1cccc(Cl)c1             Yes
2  CC1CCCC(NC(=S)Nc2ccc(SC(F)F)cc2)C1C (stereo unspecified)             Yes
3  C=CCOc1cccc(/C=C2\C(=O)N(Cc3ccc(C)cc3)C(C)=C2C(=O)OC)c1             Yes
4      O=c1cc(-c2ccc(O)cc2)oc2ccc3ccccc3c12             Yes
5  COc1cc(-c2nc(-c3ccc(NC(=O)c4ccc(Br)o4)cc3)no2)cc(OC)c1OC             Yes

Hi team, can someone confirm the assay call for CCOc1cccc(/C=N/NC(=O)c2cc(C3CC3)[nH]n2)c1O ?
Yes

Hi team, can someone confirm the assay call for COC(=O)c1ccccc1NCc1cc(=O)oc2cc(O)c(O)cc12 ?
Yes

Hi team, can someone confirm the assay call for CC1CCCC(NCC(O)COC(c2ccc(F)cc2)c2ccc(F)cc2)C1C (stereo unspecified) ?
Yes

Hi team, can someone confirm the assay call for Cc1ccccc1N=C1SC(CC(=O)Nc2ccc3ccccc3c2)C(=O)N1Cc1ccccn1 (stereo unspecified) ?
Yes

###

- Tested on: HMLE_sh_eGFP viability, CellTiter-Glo luminescence, 72 h
- assay-notes: cytotoxicity in HMLE control line with eGFP shRNA, dose response, counter-screen for HMLE_sh_ECad selective toxicity project, cell-based, HMLE_sh_eGFP, luminescence (AID 463074);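 also: counterscreen control line to flag general toxicity for the HMLE_sh_ECad screen; potency for loss of viability as luminescence drops below DMSO wells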
The source made the active and inactive calls.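 Rule for the calls: active = AC50 no more than tenfold above the top dose tested, or full inhibition at every dose with a flat fit (cut at about 19 µM in these data); inconclusive = flat curve fit with inhibition between 30% and 70%, or poor fit; inactive = AC50 more than tenfold above the top dose tested.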
Write down one outcome, taken from 1 (yes) (active), 0 (no) (inactive)

>>> df
                                   molecule  classification
0  CCN(CC)CCNC(=O)c1[nH]c2ccc(OCc3ccccc3)cc2c1C         1 (yes)
1  CCC(C)Sc1cccc(-c2nc3ccc(C)cn3c2NCc2ccccc2)c1 (centres undefined)         1 (yes)
2  CC(C)(C)c1ccc(Oc2ccc(NC(=O)c3cccs3)cn2)cc1         1 (yes)
3  NC(=O)CC(NC(=O)Cc1cccc2ccccc12)c1ccc(NCc2ccccc2)c([N+](=O)[O-])c1 (centres undefined)         1 (yes)
4  COCCNc1cc(-c2ccccc2)nc2cc(-c3cccc(F)c3)nn12         1 (yes)
5  Cc1cc(NCCCn2ccnc2)n2nc(C)c(-c3ccc(Cl)cc3)c2n1         1 (yes)

Hi team, can someone confirm the assay call for O=C(/C=C/c1ccc(Cl)cc1)c1ccc([N+](=O)[O-])o1 ?
1 (yes)

Hi team, can someone confirm the assay call for Cc1cccc(N/N=C(\C(N)=O)C2=NC(C)(C)Cc3ccccc32)c1 ?
1 (yes)

Hi team, can someone confirm the assay call for Clc1ccc(Cl)c(OCCCCN2CCNCC2)c1 ?
1 (yes)

Hi team, can someone confirm the assay call for Cc1sc2nc(SCCN(C)C)n(-c3ccccc3)c(=O)c2c1-c1ccc(F)cc1 ?
1 (yes)

Hi team, can someone confirm the assay call for O=C(N[C@H]1C/C=C\C[C@@H](CC(=O)N(CCO)Cc2ccccc2)C(=O)NC[C@H](c2ccccc2)OC1=O)OCC1c2ccccc2-c2ccccc21 ?
1 (yes)

Hi team, can someone confirm the assay call for O=C(NC(=S)Nc1ccc(N2CCCCC2)c(Cl)c1)c1cccs1 ?
1 (yes)

Hi team, can someone confirm the assay call for CCCc1cc(SCC(=O)Nc2c(C)n(C)n(-c3ccccc3)c2=O)n2c(nc3ccccc32)c1C#N ?
0 (no)

Hi team, can someone confirm the assay call for CC1=NN(c2nc(-c3ccc(F)cc3)cs2)C(=O)C1 ?
1 (yes)

Hi team, can someone confirm the assay call for CCCCCCSc1cc(-c2nc3ccc(C)cn3c2NCCCC)ccc1OC ?
1 (yes)

Hi team, can someone confirm the assay call for COC(=O)c1ccc(/C=C/c2c(-c3ccc(OC)cc3)oc3ccc(N4CCOCC4)cc23)cc1 ?
1 (yes)

Hi team, can someone confirm the assay call for Cc1cc(-c2csc3nc[nH]c(=S)c23)cc(C)c1C ?
1 (yes)

Hi team, can someone confirm the assay call for O=C(c1cccc(S(=O)(=O)N2CCc3ccccc3C2)c1)N1CCN(c2ccc(O)cc2)CC1 ?
1 (yes)

Hi team, can someone confirm the assay call for O=Cc1cc2ccccc2nc1SCc1ccc(Cl)c(Cl)c1 ?
1 (yes)

Hi team, can someone confirm the assay call for CCCCNc1c(-c2ccc(OC)c(SC(C)CC)c2)nc2ccc(C)cn12 (centres undefined) ?
1 (yes)

Hi team, can someone confirm the assay call for Cc1cc2c(cc1C)C(c1ccccc1OC(C)C)CC(=O)N2 (centres undefined) ?
1 (yes)

Hi team, can someone confirm the assay call for O=C1NC[C@@H](Cc2cccc3ccccc23)N(CCCCC2CCCCC2)C1=O ?
1 (yes)

Hi team, can someone confirm the assay call for COc1ccc2nc(N=Nc3ccc(O)c4ccccc34)sc2c1 ?
1 (yes)

Hi team, can someone confirm the assay call for O=C(Nc1nccs1)c1ccc(COc2ccccc2Cl)o1 ?
1 (yes)
